Test system: SGC-7901
Assay: Cytotoxicity against human SGC7901 cells after 48 hrs
Type: functional, cell-based
Details: SGC-7901, 48 h
Give measured IC50 for each item. Keep answers brief.
Number only, in µM; omit the unit.

Tested on SGC-7901: "COc1cc([C@@H]2c3cc4c(cc3[C@@H](OCC/C(=N\S(C)(=O)=O)N3CCCCC3)[C@H]3COC(=O)[C@H]23)OCO4)cc(OC)c1OC" . Observed IC50: 18.2

Short answer on SGC-7901 for "COc1cc([C@@H]2c3cc4c(cc3[C@@H](OCC/C(=N\S(C)(=O)=O)N3CCCC3)[C@H]3COC(=O)[C@H]23)OCO4)cc(OC)c1OC" , IC50: 11.2

"COc1cc([C@@H]2c3cc4c(cc3[C@@H](OCC/C(=N\S(C)(=O)=O)N(C)C)[C@H]3COC(=O)[C@H]23)OCO4)cc(OC)c1OC" tested on SGC-7901 gave IC50: 3.71

The recorded IC50 with SGC-7901 for COc1cc2c(c(OC)c1OC)-c1ccc(OC)c(=O)cc1[C@@H](NC(C)=O)CC2 [COLCHICINE] was 0.05

Recorded IC50 for "COc1cc([C@@H]2c3cc4c(cc3[C@@H](OCC/C(=N\S(C)(=O)=O)N(C3CCCCC3)C3CCCCC3)[C@H]3COC(=O)[C@H]23)OCO4)cc(OC)c1OC" on SGC-7901 was 3.21

Readout IC50 for "COc1cc([C@@H]2c3cc4c(cc3[C@@H](OCC/C(N)=N\S(C)(=O)=O)[C@H]3COC(=O)[C@H]23)OCO4)cc(OC)c1OC" , test system SGC-7901, was 4.31

----------
System: SGC-7901
Assay: Cytotoxicity against human SGC7901 cells after 48 hrs
Type: functional, cell-based
Settings: SGC-7901, 48 h
parameter: pIC50
Formally, pIC50 is defined as -log10 of the concentration c, with c in mol/L.

Entry "CCCN(CCC)/C(CCO[C@@H]1c2cc3c(cc2[C@@H](c2cc(OC)c(OC)c(OC)c2)[C@H]2C(=O)OC[C@@H]21)OCO3)=N/S(C)(=O)=O" under SGC-7901 had pIC50 of 5.54

Query "COc1cc([C@@H]2c3cc4c(cc3[C@@H](OCC/C(=N\S(C)(=O)=O)NCc3ccccc3)[C@H]3COC(=O)[C@H]23)OCO4)cc(OC)c1OC" on SGC-7901; pIC50 returned: 4.72

Record for "COc1cc([C@@H]2c3cc4c(cc3[C@H](O)[C@H]3COC(=O)[C@H]23)OCO4)cc(OC)c1OC" under target or system SGC-7901: pIC50 reported as 6.47

----------
System: HeLa
Experiment: Cytotoxicity against human HeLa cells after 48 hrs
Format: functional, cell-based
Consider the following molecules; for each one, report its log10 of IC50.
// do not treat as linear: log10 of IC50, unit µM

# log10 of IC50 of "COc1cc([C@@H]2c3cc4c(cc3[C@H](O)[C@H]3COC(=O)[C@H]23)OCO4)cc(OC)c1OC" = -0.85

Consider "COc1cc2c(c(OC)c1OC)-c1ccc(OC)c(=O)cc1[C@@H](NC(C)=O)CC2" . Its measured log10 of IC50 is -1.00

Item: "COc1cc([C@@H]2c3cc4c(cc3[C@@H](OCC/C(=N\S(C)(=O)=O)N3CCCC3)[C@H]3COC(=O)[C@H]23)OCO4)cc(OC)c1OC" | log10 of IC50: 0.78

The molecule listed as "COc1cc([C@@H]2c3cc4c(cc3[C@@H](OCC/C(N)=N\S(C)(=O)=O)[C@H]3COC(=O)[C@H]23)OCO4)cc(OC)c1OC" has a reported log10 of IC50 of 0.57

Memo: "COc1cc([C@@H]2c3cc4c(cc3[C@@H](OCC/C(=N\S(C)(=O)=O)N(C3CCCCC3)C3CCCCC3)[C@H]3COC(=O)[C@H]23)OCO4)cc(OC)c1OC" , reported log10 of IC50: 0.64

"COc1cc([C@@H]2c3cc4c(cc3[C@@H](OCC/C(=N\S(C)(=O)=O)NCc3ccccc3)[C@H]3COC(=O)[C@H]23)OCO4)cc(OC)c1OC" yielded log10 of IC50 of 1.05

----------
Tested on: HeLa
Assay: Cytotoxicity against human HeLa cells after 48 hrs
Format: functional, cell-based
Field: IC50. Provide a value for each of the compounds that follow.
Supply the numeric figure in µM, leaving out any unit text.

HeLa data for "COc1cc([C@@H]2c3cc4c(cc3[C@@H](OCC/C(=N\S(C)(=O)=O)N(C)C)[C@H]3COC(=O)[C@H]23)OCO4)cc(OC)c1OC" ; its IC50: 2.58

Given the compound "CCCN(CCC)/C(CCO[C@@H]1c2cc3c(cc2[C@@H](c2cc(OC)c(OC)c(OC)c2)[C@H]2C(=O)OC[C@@H]21)OCO3)=N/S(C)(=O)=O" and test system HeLa, the measured IC50 is 2.63

Log: HeLa, compound "COc1cc([C@@H]2c3cc4c(cc3[C@@H](OCC/C(=N\S(C)(=O)=O)N3CCCCC3)[C@H]3COC(=O)[C@H]23)OCO4)cc(OC)c1OC" , IC50 = 10.4
